assay: chemical genetic growth profiling, strain panel (AID 1159580);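 further: tested at 20 µM; growth read once vehicle control cultures reached saturation at 30 °C; 1 = growth at the plate median or of vehicle wells; lower values mean less growth of the strain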; details: S. cerevisiae deletion strains, growth OD, locus YLR258W, strain gsy2
Screen size: about 5,500 compounds; about 2,000 (36%) were called active. Inconclusive results (about 18%) are left out. No stated cut-off is given here; in the data, active means normalized growth mostly below about 0.91 (no sharp cut-off); inconclusive means no clear call, values can overlap the other calls; inactive means mostly above about 0.92. The list shows a part of the results.
Allowed answers: active, inactive

# example entries with known answers
Tell me the assay call for CC(=O)[C@H]1CCC2C3CC=C4C[C@@H](OC(=O)CCC(=O)O)CC[C@]4(C)C3CC[C@@]21C (stereo partly specified) please. inactive

What classification did `COc1ccc(-c2cc(=O)c3ccccc3o2)cc1OC` end up with in this test? active

Would you mind telling me which call this test gave `COc1ccc(-c2cc(=O)c3cc(OC)ccc3o2)cc1` ? inactive

Consider the record given below.
// outcome(item) with item = `COc1cc2c3cc1Oc1cc(ccc1O)C[C@@H]1c4c(cc(OC)c(O)c4Oc4ccc(cc4)C[C@@H]3N(C)CC2)CC[N+]1(C)C` inactive

====

assay: chemical genetic growth profiling, strain panel (AID 1159580); settings: S. cerevisiae deletion strains, growth OD, locus YKL009W, strain mrt4
Out of some 5,500 compounds screened, about 2,000 (36%) were called active. Not shown: some 18% with an inconclusive outcome. Rule as the data show it: active = normalized growth mostly below about 0.91 (no sharp cut-off); inconclusive = no clear call, values can overlap the other calls; inactive = mostly above about 0.92. This is one part of the list.
Answer with one of the outcomes given here: true (active), false (inactive)

How was CCOC(=O)C1C(C=C(C)C)C1(C)C (centres undefined) classified in this test? false

Next:
Identify the outcome logged in this assay for the molecule shown: `Nc1ccc(C(=O)O)c(O)c1` false

Which outcome did this test record for the molecule `CC(=O)Nc1cccc(O)c1` ? false

Give the logged outcome of this assay for the following molecule: CC1(C)O[C@@H]2CC3C4C[C@H](F)C5=CC(=O)C=CC5(C)C4C(O)CC3(C)[C@]2(C(=O)CO)O1 (some centres undefined) false

Dear colleague, could you share the recorded outcome for C=C1C2CC[C@@]3(C)[C@H](c4ccoc4)OC(=O)C[C@]13O[C@H]1CC(=O)C(C)(C)[C@H](C(O)C(=O)OC)[C@@]21C (some centres undefined) when you have a moment? false

Record request — test call for CSc1ccc2c(c1)C(N1CCN(C)CC1)Cc1ccccc1S2 (centres undefined) false

Answer briefly: the call reported for `C[N+]1(CCCCC[N+]2(C)CCCC2)CCCC1` in this assay. false

Record request — test call for Nc1ccc(C(=O)O)c(O)c1 (tested in a mixture with another compound) false

Answer briefly: the call reported for `Cc1cc2cc3c(C)cc(=O)oc3c(C)c2o1` in this assay. false

Which result was noted for this molecule in the test: `Nc1ccc(C(=O)Oc2ccccc2)c(O)c1` false

Hey, what did the test say about CN1CCOC(c2ccccc2)c2ccccc2C1 (centres undefined) ? false

====

A collection of molecules and their measured normalized growth
test: chemical genetic growth profiling, strain panel (AID 1159580);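 further: tested at 20 µM; growth read once vehicle control cultures reached saturation at 30 °C; 1 = growth at the plate median or of vehicle wells; lower values mean less growth of the strain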; conditions: S. cerevisiae deletion strains, growth OD, locus YER155C, strain BEM2 (second series), hits give low values
About 2,000 (36%) of roughly 5,500 compounds were called active. About 18% were inconclusive and are not listed. This is one part of the list.
Would you mind answering with just the numeric figure?

For the molecule `CNCCC=C1c2ccccc2CCc2ccccc21` , what normalized growth is on record? 0.917

Need normalized growth, item CC[N+]1(C)CCCC(OC(=O)C(O)(c2ccccc2)c2ccccc2)C1 (centres undefined) 1.01

Which normalized growth reading was recorded for the molecule CCCCOc1cc(CC2CNC(=O)N2)ccc1OC (centres undefined) ? 1.04

Can you look up the measured normalized growth of `ClC(Cl)=C(c1ccc(Cl)cc1)c1ccc(Cl)cc1` for me? 0.983

# input molecule: `CC(C)=CCc1c2c(c(O)c3c(=O)c(O)c(-c4ccccc4)oc13)C=CC(C)(C)O2` ; wanted: its normalized growth 0.755

For the molecule shown here, `COc1ccc(-c2coc3cc(OC(C)=O)cc(OC(C)=O)c3c2=O)cc1` , give the reported normalized growth. 0.878

Consider the molecule `O=c1[nH]c2cc(Cl)c(Cl)cc2[nH]c1=O` and give its measured normalized growth. 0.967

Name the reported normalized growth value associated with the molecule `O=c1oc2ccccc2c(O)c1Cc1c(O)c2ccccc2oc1=O` 1.02

More entries:
Consider the molecule shown here: `O=C1CN2Cc3c(ccc(Cl)c3Cl)N=C2N1` What is its recorded normalized growth? 1.02

Would you mind telling me what normalized growth value was observed for `COc1ccc(-c2cc(=O)c3ccccc3o2)cc1OC` ? 0.381

Reported normalized growth, molecule `CC(C)c1ccc2c(c1O)CC[C@H]1C3=C(CC[C@]21C)C(=O)OC3` : ____ 0.807

Consider the molecule shown here: `CCN1CCN(c2cc3c(cc2F)c(=O)c(C(=O)O)cn3C2CC2)CC1` What is its recorded normalized growth? 1.01

Requested field: normalized growth. Item: `COc1ccc(-c2cc(=O)c3cc(OC)ccc3o2)cc1` 0.771

Query (molecule): `COc1ccc2cc3[n+](cc2c1OC)CCc1cc2c(cc1-3)OCO2` ; field requested: normalized growth 0.968

Consider the molecule shown here: `COc1cc([C@@H]2c3cc4c(cc3[C@H](O)[C@H]3COC(=O)[C@@H]23)OCO4)cc(OC)c1OC` What is its recorded normalized growth? 1.02

Reported normalized growth for `CCn1cc(C(=O)O)c(=O)c2cc(F)c(N3CCNCC3)cc21` : what is it? 0.95

Using the record for `COc1cc2c3cc1Oc1cc(ccc1O)C[C@@H]1c4c(cc(OC)c(O)c4Oc4ccc(cc4)C[C@@H]3N(C)CC2)CC[N+]1(C)C` , report its normalized growth. 1.05

normalized growth lookup needed for C=CCc1ccccc1OCC(O)CNC(C)C (centres undefined) , thanks. 0.968

Given the entry `O=C1CCc2cc(OCCCCc3nnnn3C3CCCCC3)ccc2N1` , report its measured normalized growth. 0.965

Name the recorded normalized growth for CC(=O)O[C@@H]1CC2C(C)(C)[C@H](O)C[C@H](O)[C@]2(C)C2CC[C@@]3(C)[C@H](c4ccoc4)OC(=O)[C@H]4O[C@]43[C@@]21C (some centres undefined) . 0.997

// normalized growth lookup, key: `NCC(=O)CCC(=O)O` 0.955

====

assay: chemical genetic growth profiling, strain panel (AID 1159580);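 further: tested at 20 µM; growth read once vehicle control cultures reached saturation at 30 °C; 1 = growth at the plate median or of vehicle wells; lower values mean less growth of the strain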; conditions: S. cerevisiae deletion strains, growth OD, locus YNL298W, strain CLA4
In all, about 5,500 compounds went through this assay and about 2,000 (36%) were called active. Another 18% or so got no clear call; they are omitted. No stated cut-off is given here; in the data, active means normalized growth mostly below about 0.91 (no sharp cut-off); inconclusive means no clear call, values can overlap the other calls; inactive means mostly above about 0.92. The list shows a part of the results.
Return exactly one item of active, inactive

These recorded examples may help you get a feel for the data.
Dear all, I need the recorded test outcome for `CNCCC=C1c2ccccc2CCc2ccccc21` , thank you. inactive

Hi, do you know how `CC1=NCCc2c1[nH]c1cc(O)ccc21` came out in this test? inactive

Called result for CC(=O)CC(c1ccccc1)c1c(O)c2ccccc2oc1=O (stereo unspecified) inactive

Which outcome was assigned to `O=C(/C=C/c1ccccc1)c1ccc(O)cc1` in this test? active

Given `CC(C)c1ccc2c(c1O)CC[C@H]1C3=C(CC[C@]21C)C(=O)OC3` , state the outcome it received in this test. inactive

***
# outcome recorded in this test, key = `CN(C)CCC=C1c2ccccc2C=Cc2ccccc21` inactive

What is the recorded call for this molecule in the test? `CC(C)=CCc1c2c(c(O)c3c(=O)c(O)c(-c4ccccc4)oc13)C=CC(C)(C)O2` active

Lab log entry: `CCN(CC)CCNc1ccc(CO)c2sc3ccccc3c(=O)c12` — outcome as called in the assay? inactive

Called result for `CC(=O)Oc1c(-c2ccccc2)oc2c(CC=C(C)C)c3c(c(OC(C)=O)c2c1=O)C=CC(C)(C)O3` inactive

Give the logged outcome of this assay for the following molecule: `CN(C)CC/C=C1/c2ccccc2COc2ccccc21` inactive

Per the records of this test, what outcome belongs to CCC1C2CC3C4N(C)c5ccccc5C45CC(C2C5OC(C)=O)N3C1OC(C)=O (stereo unspecified) ? inactive

====

test: chemical genetic growth profiling, strain panel (AID 1159580);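 further: tested at 20 µM; growth read once vehicle control cultures reached saturation at 30 °C; 1 = growth at the plate median or of vehicle wells; lower values mean less growth of the strain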; conditions: S. cerevisiae deletion strains, growth OD, locus YDR159W, strain sac3, hits give low values
About 2,000 (36%) of roughly 5,500 compounds were called active. About 18% were inconclusive and are not listed. Some of the results follow.
Overview of recorded normalized growth for various compounds
Number only, please.

Would you please look over these solved cases?
Fill blank: measured normalized growth of the compound `CC(=O)Oc1c(-c2ccccc2)oc2c(CC=C(C)C)c3c(c(OC(C)=O)c2c1=O)C=CC(C)(C)O3` is ____. 0.982

What value of normalized growth has been recorded for this entry: `CN(N=O)C(=O)N[C@@H]1[C@@H](O)[C@H](O)[C@@H](CO)O[C@@H]1O` 0.945

What does the record list as normalized growth for `CC1=C2C(=CO[C@H](C)[C@H]2C)C(=O)C(C(=O)O)=C1O` ? 0.957

***
Give its normalized growth value. Item: `C/C(=C\C(=O)OCCCCCCCCC(=O)O)C[C@@H]1OC[C@H](C[C@@H]2O[C@H]2[C@@H](C)[C@H](C)O)[C@@H](O)[C@H]1O` 0.936

What value of normalized growth has been recorded for this entry: `CCn1cc(C(=O)O)c(=O)c2cc(F)c(N3CCNCC3)cc21` 0.948

Data origin: PubChem BioAssay AID1159580
